Data origin, for the record: ChEMBL document CHEMBL4177609

- SYSTEM: Receptor-type tyrosine-protein kinase FLT3 (Homo sapiens, UniProt P36888, ITD)
- Sequence (P36888 whole entry, looked up, stated change not applied, the tested form may be a part): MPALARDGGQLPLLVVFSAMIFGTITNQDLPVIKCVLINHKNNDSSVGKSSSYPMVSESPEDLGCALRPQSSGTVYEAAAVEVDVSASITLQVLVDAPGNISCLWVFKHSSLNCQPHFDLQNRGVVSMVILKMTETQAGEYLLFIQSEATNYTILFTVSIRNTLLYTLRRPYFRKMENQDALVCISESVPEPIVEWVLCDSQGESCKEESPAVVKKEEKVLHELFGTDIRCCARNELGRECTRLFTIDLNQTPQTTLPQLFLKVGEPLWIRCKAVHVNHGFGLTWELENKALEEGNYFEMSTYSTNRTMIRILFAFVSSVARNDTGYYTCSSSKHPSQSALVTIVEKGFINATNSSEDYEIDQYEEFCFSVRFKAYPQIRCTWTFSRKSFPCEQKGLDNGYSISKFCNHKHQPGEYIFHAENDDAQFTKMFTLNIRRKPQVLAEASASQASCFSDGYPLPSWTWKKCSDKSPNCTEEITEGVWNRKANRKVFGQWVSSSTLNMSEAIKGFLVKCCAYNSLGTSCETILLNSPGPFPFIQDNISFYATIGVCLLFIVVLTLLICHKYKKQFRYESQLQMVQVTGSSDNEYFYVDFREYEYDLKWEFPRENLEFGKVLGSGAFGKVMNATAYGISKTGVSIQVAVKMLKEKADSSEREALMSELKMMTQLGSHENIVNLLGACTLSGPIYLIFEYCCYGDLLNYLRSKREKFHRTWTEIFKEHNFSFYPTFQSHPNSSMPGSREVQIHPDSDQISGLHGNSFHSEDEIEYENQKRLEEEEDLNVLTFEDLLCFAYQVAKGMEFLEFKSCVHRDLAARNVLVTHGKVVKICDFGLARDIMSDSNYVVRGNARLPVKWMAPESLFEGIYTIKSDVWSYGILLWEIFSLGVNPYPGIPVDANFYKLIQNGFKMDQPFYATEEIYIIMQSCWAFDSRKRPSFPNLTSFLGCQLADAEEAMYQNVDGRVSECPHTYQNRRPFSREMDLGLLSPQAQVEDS
- PROTOCOL SUMMARY: Inhibition of recombinant human C-terminal FLT3 ITD mutant (571 to 993 residues) after 90 mins by mobility shift assay
Attribute: IC50

| SMILES REPR | IC50 / nM |
| --- | --- |
| Nc1ncnc2c1c(-c1ccc(Oc3ccccc3)cc1)cn2[C@H]1CC[C@@H](N2CCC[C@@H]2C(=O)O)CC1 | 16 |
| CC(C)C[C@@H](N[C@H]1CC[C@H](n2cc(-c3ccc(Oc4ccccc4)cc3)c3c(N)ncnc32)CC1)C(=O)O | 53 |
| C[C@H](N[C@H]1CC[C@H](n2cc(-c3ccc(Oc4ccccc4)cc3)c3c(N)ncnc32)CC1)C(=O)O | 39 |
| Nc1ncnc2c1c(-c1ccc(Oc3ccccc3)cc1)cn2[C@H]1CC[C@@H](N2CCC[C@H]2C(=O)O)CC1 | 20 |
| Nc1ncnc2c1c(-c1ccc(Oc3ccccc3)cc1)cn2[C@H]1CC[C@@H](N[C@H](CO)C(=O)O)CC1 | 12 |
| CC(C)CCN[C@H]1CC[C@@H](n2cc(-c3ccc(Oc4ccccc4)cc3)c3c(N)ncnc32)CC1 | 44 |
| Nc1ncnc2c1c(-c1ccc(Oc3ccccc3)cc1)cn2[C@H]1CC[C@@H](N[C@@H](Cc2ccccc2)C(=O)O)CC1 | 3.1 |
| Nc1ncnc2c1c(-c1ccc(Oc3ccccc3)cc1)cn2[C@H]1CC[C@H](N[C@H]2CCOC2=O)CC1 | 25 |
| Nc1ncnc2c1c(-c1ccc(Oc3ccccc3)cc1)cn2[C@H]1CC[C@H](N2CCC[C@@H]2C(=O)O)CC1 | 126 |
| Nc1ncnc2c1c(-c1ccc(Oc3ccccc3)cc1)cn2[C@H]1CC[C@H](N[C@H](Cc2ccccc2)C(=O)O)CC1 | 27 |
| Nc1ncnc2c1c(-c1ccc(Oc3ccccc3)cc1)cn2[C@H]1CC[C@@H](N[C@H](Cc2ccc(O)cc2)C(=O)O)CC1 | 5 |
| Nc1ncnc2c1c(-c1ccc(Oc3ccccc3)cc1)cn2[C@H]1CC[C@H](N[C@@H](Cc2ccc(O)cc2)C(=O)O)CC1 | 28 |
| C[C@@H](N[C@H]1CC[C@H](n2cc(-c3ccc(Oc4ccccc4)cc3)c3c(N)ncnc32)CC1)C(=O)O | 39 |
| C[C@H](N[C@H]1CC[C@@H](n2cc(-c3ccc(Oc4ccccc4)cc3)c3c(N)ncnc32)CC1)C(=O)O | 20 |
| Nc1ncnc2c1c(-c1ccc(Oc3ccccc3)cc1)cn2[C@H]1CC[C@@H](N[C@H]2CCOC2=O)CC1 | 27 |
| Nc1ncnc2c1c(-c1ccc(Oc3ccccc3)cc1)cn2[C@H]1CC[C@H](N[C@H](CO)C(=O)O)CC1 | 17 |

----------
Attribute: IC50
- SYSTEM: Receptor-type tyrosine-protein kinase FLT3 (Homo sapiens, UniProt P36888, ITD)
- PROTOCOL SUMMARY: Inhibition of recombinant human C-terminal FLT3 ITD mutant (571 to 993 residues) after 90 mins by mobility shift assay

| SMILES REPR | IC50 (nM) |
| --- | --- |
| Nc1ncnc2c1c(-c1ccc(Oc3ccccc3)cc1)cn2[C@H]1CC[C@@H](N[C@@H](Cc2ccc(O)cc2)C(=O)O)CC1 | 5 |
| CC(C)C[C@@H](N[C@H]1CC[C@@H](n2cc(-c3ccc(Oc4ccccc4)cc3)c3c(N)ncnc32)CC1)C(=O)O | 35 |
| Nc1ncnc2c1c(-c1ccc(Oc3ccccc3)cc1)cn2[C@H]1CC[C@@H](N[C@@H](CO)C(=O)O)CC1 | 13 |
| Nc1ncnc2c1c(-c1ccc(Oc3ccccc3)cc1)cn2[C@H]1CC[C@H](N[C@H](Cc2ccc(O)cc2)C(=O)O)CC1 | 11 |
| Nc1ncnc2c1c(-c1ccc(Oc3ccccc3)cc1)cn2[C@H]1CC[C@H](NCCC(=O)O)CC1 | 33 |
| C[C@@H](N[C@H]1CC[C@@H](n2cc(-c3ccc(Oc4ccccc4)cc3)c3c(N)ncnc32)CC1)C(=O)O | 23 |
| Nc1ncnc2c1c(-c1ccc(Oc3ccccc3)cc1)cn2[C@H]1CC[C@@H](N[C@H](Cc2ccccc2)C(=O)O)CC1 | 2.6 |
